B1: TCAP (parent)
chain: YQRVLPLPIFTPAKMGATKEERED

Variants of: B1
Assay text: protein stability index of a GFP-peptide fusion (GPS, HEK-293T) (PSI 1-6); higher = more stable;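 further: lentivirally expressed fusions sorted by FACS into six bins by GFP to DsRed ratio, PSI derived from sequencing read proportions per bin multiplied by bin number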
Test context: c terminus: a fixed tail appended
Short version: protein stability index at least 2 is Yes, less is No.

INSERT INTO assay_data (variant_notation, qualitative_label) VALUES
  ('T18I', 'No'),
  ('Q2T', 'No'),
  ('E21N', 'No'),
  ('A17Q', 'No'),
  ('E21M', 'No'),
  ('P12C', 'Yes'),
  ('L7K', 'Yes'),
  ('E20T', 'Yes'),
  ('T11H', 'Yes'),
  ('K19T', 'Yes');

Exercise: Check this variant for protein stability index at or above 2: F10H
Solution: Yes

Exercise: Check this variant for protein stability index at or above 2: L5F
Solution: Yes

Exercise: Check this variant for protein stability index at or above 2: I9S
Solution: Yes

Exercise: Check this variant for protein stability index at or above 2: T11V
Solution: Yes

Exercise: Check this variant for protein stability index at or above 2: E21C
Solution: Yes

Exercise: Check this variant for protein stability index at or above 2: G16Q
Solution: Yes

Exercise: Check this variant for protein stability index at or above 2: E23Q
Solution: No

Exercise: Check this variant for protein stability index at or above 2: I9C
Solution: Yes

Exercise: Check this variant for protein stability index at or above 2: F10M
Solution: Yes

Exercise: Check this variant for protein stability index at or above 2: K19N
Solution: Yes

Exercise: Check this variant for protein stability index at or above 2: F10P
Solution: Yes

Exercise: Check this variant for protein stability index at or above 2: P12A
Solution: Yes
